Cited source for all entries: ChEMBL document CHEMBL1201862

- MEASUREMENT_NOTES: MC4R antagonists, dose response, counter-screen for LGR2 antagonist project, cell-based, plate reader, cherry pick (AID 743444);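 note: transfected HEK 293 cells stimulated with alpha-MSH peptide; potency of inhibitors of the alpha-MSH evoked signal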
- Type: functional
The source made the active and inactive calls.
VALUE_TYPE: AC50

1. O=C(Nc1nc2c(F)cc(F)cc2s1)c1ccccn1
3.17 µM (active)
2. Cc1ccc(-n2[nH]c(=O)c(-c3ccccn3)c2C)cc1
2.08 µM (active)
3. COc1ccc(C(=O)Nc2ccc3ccccc3c2)cc1
8.43 µM (active)
4. O=C(Nc1nnc(C2CC2)s1)c1ccccn1
17.1 µM (active)
5. O=c1c(Cl)c(Cl)cnn1-c1ccccc1
16.3 µM (active)
6. c1ccc(-c2ccc(-c3nc(-c4ccccn4)no3)cc2)cc1
0.261 µM (active)

* * *

Reported values: AC50 for Cytochrome P450 1A2 (Homo sapiens), one per item.
VALUE_TYPE: AC50

1. O=C(c1ccccc1)C1CN(c2ccccc2)CC1c1ccc(Cl)cc1 (stereo unspecified)
3.55 µM (inconclusive)
2. COc1ccc(-c2c[n+]3c4n2CCCCC4=C(c2ccccc2)C3)cc1
28.2 µM (inconclusive)
3. Oc1ccc(CCNCc2cc3c(cc2Br)OCO3)cc1
1 µM (inconclusive)
4. O=C(O)c1cnc2c(ccc3ncc(C(=O)O)c(O)c32)c1O
5.01 µM (inconclusive)
5. O=C(c1cccc(F)c1)N1CCC2(CCCN(C(c3ccccc3)c3ccccc3)C2)CC1
6.31 µM (inconclusive)
6. O=C(Nc1cnn(Cc2ccc(Cl)cc2)c1)c1ccc([N+](=O)[O-])cc1
6.31 µM (inconclusive)
7. O=C1CC2(CCCC2)CC(=O)N1CCCCNC[C@H]1COc2ccccc2O1
79.4 µM (inconclusive)
8. CC(C)(C)C(=O)NC(=C(Cl)Cl)P(=O)(O)O
0.1 µM (inconclusive)
9. O=S(=O)(O)c1ccc2c(/N=N\c3cccc4ccccc34)c(O)c(S(=O)(=O)O)cc2c1
5.01 µM (inconclusive)
10. CC[N+](C)(CC)CCOC(=O)C1c2ccccc2Oc2ccccc21
10 µM (inconclusive)
11. CC(C)C1NC(=S)N(Cc2ccccc2)C1=O (stereo unspecified)
20 µM (inconclusive)

* * *

- MEASUREMENT_NOTES: HEK293 cell cytotoxicity, dose response, cytotoxicity control, plate reader, cherry-picked samples (AID 743446)
- Format: functional, cell-based
Calls of active or inactive are those of the source.
Possible outcomes: active, inactive

1. Cc1ccnc(NC(=O)c2cccc(S(=O)(=O)N3CCN(c4ccccc4)CC3)c2)c1
inactive
2. O=c1c(Cl)c(Cl)cnn1-c1ccccc1
active
3. Cn1nc(-c2ccccn2)nc2c(=O)n(C)c(=O)nc1-2
active
4. c1ccc(-c2ccc(-c3nc(-c4ccccn4)no3)cc2)cc1
active

* * *

Some compounds, each annotated with its measured EC50.
- MEASUREMENT_NOTES: inhibitors of SNCA 5'UTR-driven reporter translation, confirmation, H4 neuroglioma cells, luminescence (AID 1988)
- Type: functional, cell-based
Activity calls are given as the source filed them.
VALUE_TYPE: EC50

1. Cc1onc(-c2ccccc2Cl)c1C(=O)N(Cc1ccc(N(C)C)cc1)C(C)C
> 120 µM (not active)
2. COc1ccc(/C=N/Nc2cc(C)nc3ccc(Br)cc23)cc1
7.61 µM (active)
3. Cc1ccc(-c2nn(CC(=O)NCc3cc(-c4nn(C)c(=O)c5ccccc45)ccc3C)c(=O)c3ccccc23)cc1
6.81 µM (active)
4. Nc1nc(NCCCN2CCOCC2)nc(Nc2ccccc2)c1[N+](=O)[O-]
> 120 µM (not active)
5. O=S(=O)(c1ccccc1)N1CCC2(CC1)OCCO2
> 120 µM (not active)
6. COc1ccc(O)c(/C=N/NC(=O)c2ccc(N3CCCC3=O)cc2)c1
12.5 µM (active)
7. CC(C)NC(=O)c1ccccc1NC(=O)/C=C/c1cccc([N+](=O)[O-])c1
9.29 µM (active)

* * *

- SYSTEM_UNDER_TEST: RNA-binding protein pos-1 (Caenorhabditis elegans)
- Sequence (G5EF15 whole entry, the tested form may be a part): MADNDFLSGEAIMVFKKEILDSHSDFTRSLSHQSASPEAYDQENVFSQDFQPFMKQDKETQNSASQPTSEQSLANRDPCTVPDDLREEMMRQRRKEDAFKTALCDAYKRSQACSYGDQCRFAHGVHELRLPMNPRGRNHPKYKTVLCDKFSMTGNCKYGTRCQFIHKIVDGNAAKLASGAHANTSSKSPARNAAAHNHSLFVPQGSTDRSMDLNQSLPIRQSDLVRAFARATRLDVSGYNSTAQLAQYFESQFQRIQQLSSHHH
- MEASUREMENT_NOTES: inhibitors of POS-1/mex-3 RNA binding, dose response, biochemical, fluorescence polarization (AID 1964);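 note: purified POS-1 fused to maltose binding protein made in E. coli; potency of compounds blocking POS-1 binding to fluorescent RNA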
Active and inactive are the calls of the source.
VALUE_TYPE: EC50

1) CCOCCCn1/c(=N/C(=O)c2cccs2)c(C#N)cc2c(=O)n3cccc(C)c3nc21
> 300 µM (not active)
2) CC(C)(O)[C@H]1O[C@H]2CC[C@@]3(C)[C@@](O)(CC[C@H]4Cc5c([nH]c6ccccc56)[C@@]43C)C2=CC1=O [PAXILLINE]
16.7 µM (active)
3) Cc1ccc(/C=C/C(=O)O)cc1S(=O)(=O)N1CCCCC1
> 300 µM (not active)
4) Cc1c(N/C=C2/C(=O)N(C)C(=O)c3ccccc32)c(=O)n(-c2ccccc2)n1C
> 300 µM (not active)
5) COC(=O)c1c(NC(=O)CC2Nc3ccccc3NC2=O)sc(C)c1C (centres undefined)
> 300 µM (not active)
6) CCCCOC(=O)c1ccc(N=Nc2c(O)nc(O)c(C#N)c2C)cc1
> 300 µM (not active)
7) Cc1ccc(CN2C(=O)N/C(=C\c3cccn3-c3cccc(C(=O)O)c3)C2=O)cc1
> 300 µM (not active)
8) O=C(O)c1ccccc1-n1c2ccccc2c2ccccc21
> 300 µM (not active)
9) COc1ccc(NS(=O)(=O)c2ccc3c(c2)[C@H]2C=CC[C@H]2[C@@H](c2ccc(C(=O)O)cc2)N3)cc1
14.3 µM (inconclusive)

* * *

- MEASUREMENT_NOTES: Luminescence Cell-Based Dose Retest to Confirm Inhibitors of Cancer Stem Cells. [Related pubchem assays (depositor defined):AID2717, AID2721]
- Format: functional
- STUDY_CONDITIONS: Homo sapiens
Active and inactive are the calls of the source.
Let's look at some molecules and their measured AC50.
VALUE_TYPE: AC50

1) Cc1ccc(C)c(NS(=O)(=O)c2ccc(-c3cnc(C4CC4)o3)cc2)c1
< 0.16 µM (active)
2) COc1ccc(NC(=O)c2cc(-c3ccccc3OC)on2)cc1
0.248 µM (active)
3) COc1ccc(/C=C2/C(=O)N(c3nc4ccccc4s3)N=C2CSc2ccc(Cl)cc2)cc1
3.01 µM (active)
4) CCC/C(=C1/c2ccccc2C(=O)N1c1ccccc1)c1ccc2[nH]ccc2c1
1.04 µM (active)
5) COc1cc(/C=C/C(=O)c2ccc(NS(=O)(=O)c3ccc(C)cc3)cc2)cc(OC)c1O
2.27 µM (active)
6) CN(C)/N=C/c1ccc(Sc2ccc([N+](=O)[O-])cc2[N+](=O)[O-])o1
22.5 µM (active)

* * *

AC50: recorded values
- SYSTEM_UNDER_TEST: Caspase-6 (Homo sapiens, UniProt P55212)
- Sequence (P55212 whole entry): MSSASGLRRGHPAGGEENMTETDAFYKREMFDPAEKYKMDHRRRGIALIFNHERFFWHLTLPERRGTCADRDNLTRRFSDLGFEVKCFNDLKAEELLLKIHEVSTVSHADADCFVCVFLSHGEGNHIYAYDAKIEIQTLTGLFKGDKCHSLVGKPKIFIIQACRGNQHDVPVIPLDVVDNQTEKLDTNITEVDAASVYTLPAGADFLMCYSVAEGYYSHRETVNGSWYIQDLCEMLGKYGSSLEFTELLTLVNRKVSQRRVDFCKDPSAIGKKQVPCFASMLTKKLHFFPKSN
- MEASUREMENT_NOTES: human caspase-6 inhibitors, dose response, biochemical, VEID-R110 fluorescence, cherry-pick (AID 720632)
The source made the active and inactive calls.
VALUE_TYPE: AC50

1. O=C(CCN1CCN(c2ccccc2)CC1)N/N=C/c1ccc(O)c(O)c1O
1.11 µM (active)
2. C/C(=N\NC(=O)c1cc(O)ccc1O)c1cccc(NC(=O)c2cccc(Cl)c2)c1
1.18 µM (active)
3. Cn1nc(-c2ccccn2)nc2c(=O)n(C)c(=O)nc1-2
0.219 µM (active)
4. O=C(N/N=C/c1cn(Cc2ccccc2)c2ccccc12)c1cc(O)cc(O)c1
3.09 µM (active)
5. CC(C)(C)c1ccc(NC(=O)COC(=O)c2ccc([N+](=O)[O-])s2)cc1
3.59 µM (active)
6. COc1ccc(NS(=O)(=O)c2ccc3c(c2)[C@H]2C=CC[C@H]2[C@@H](c2ccc(C(=O)O)cc2)N3)cc1
4.43 µM (active)
7. CC(Oc1ccc(F)cc1)C(=O)Nc1cccc(-c2nn[nH]n2)c1 (centres undefined)
32.6 µM (active)
8. Nc1c(O)cccc1C(=O)O
1.59 µM (active)
9. COc1cc(NC(C)CCCN)c2ncccc2c1 (centres undefined) [PRIMAQUINE PHOSPHATE]
1.9 µM (active)

* * *

In this section we review reported IC50 values for a set of compounds.
- SYSTEM_UNDER_TEST: Fatty acid synthase (Homo sapiens, UniProt P49327)
- Sequence (P49327 whole entry, the tested form may be a part): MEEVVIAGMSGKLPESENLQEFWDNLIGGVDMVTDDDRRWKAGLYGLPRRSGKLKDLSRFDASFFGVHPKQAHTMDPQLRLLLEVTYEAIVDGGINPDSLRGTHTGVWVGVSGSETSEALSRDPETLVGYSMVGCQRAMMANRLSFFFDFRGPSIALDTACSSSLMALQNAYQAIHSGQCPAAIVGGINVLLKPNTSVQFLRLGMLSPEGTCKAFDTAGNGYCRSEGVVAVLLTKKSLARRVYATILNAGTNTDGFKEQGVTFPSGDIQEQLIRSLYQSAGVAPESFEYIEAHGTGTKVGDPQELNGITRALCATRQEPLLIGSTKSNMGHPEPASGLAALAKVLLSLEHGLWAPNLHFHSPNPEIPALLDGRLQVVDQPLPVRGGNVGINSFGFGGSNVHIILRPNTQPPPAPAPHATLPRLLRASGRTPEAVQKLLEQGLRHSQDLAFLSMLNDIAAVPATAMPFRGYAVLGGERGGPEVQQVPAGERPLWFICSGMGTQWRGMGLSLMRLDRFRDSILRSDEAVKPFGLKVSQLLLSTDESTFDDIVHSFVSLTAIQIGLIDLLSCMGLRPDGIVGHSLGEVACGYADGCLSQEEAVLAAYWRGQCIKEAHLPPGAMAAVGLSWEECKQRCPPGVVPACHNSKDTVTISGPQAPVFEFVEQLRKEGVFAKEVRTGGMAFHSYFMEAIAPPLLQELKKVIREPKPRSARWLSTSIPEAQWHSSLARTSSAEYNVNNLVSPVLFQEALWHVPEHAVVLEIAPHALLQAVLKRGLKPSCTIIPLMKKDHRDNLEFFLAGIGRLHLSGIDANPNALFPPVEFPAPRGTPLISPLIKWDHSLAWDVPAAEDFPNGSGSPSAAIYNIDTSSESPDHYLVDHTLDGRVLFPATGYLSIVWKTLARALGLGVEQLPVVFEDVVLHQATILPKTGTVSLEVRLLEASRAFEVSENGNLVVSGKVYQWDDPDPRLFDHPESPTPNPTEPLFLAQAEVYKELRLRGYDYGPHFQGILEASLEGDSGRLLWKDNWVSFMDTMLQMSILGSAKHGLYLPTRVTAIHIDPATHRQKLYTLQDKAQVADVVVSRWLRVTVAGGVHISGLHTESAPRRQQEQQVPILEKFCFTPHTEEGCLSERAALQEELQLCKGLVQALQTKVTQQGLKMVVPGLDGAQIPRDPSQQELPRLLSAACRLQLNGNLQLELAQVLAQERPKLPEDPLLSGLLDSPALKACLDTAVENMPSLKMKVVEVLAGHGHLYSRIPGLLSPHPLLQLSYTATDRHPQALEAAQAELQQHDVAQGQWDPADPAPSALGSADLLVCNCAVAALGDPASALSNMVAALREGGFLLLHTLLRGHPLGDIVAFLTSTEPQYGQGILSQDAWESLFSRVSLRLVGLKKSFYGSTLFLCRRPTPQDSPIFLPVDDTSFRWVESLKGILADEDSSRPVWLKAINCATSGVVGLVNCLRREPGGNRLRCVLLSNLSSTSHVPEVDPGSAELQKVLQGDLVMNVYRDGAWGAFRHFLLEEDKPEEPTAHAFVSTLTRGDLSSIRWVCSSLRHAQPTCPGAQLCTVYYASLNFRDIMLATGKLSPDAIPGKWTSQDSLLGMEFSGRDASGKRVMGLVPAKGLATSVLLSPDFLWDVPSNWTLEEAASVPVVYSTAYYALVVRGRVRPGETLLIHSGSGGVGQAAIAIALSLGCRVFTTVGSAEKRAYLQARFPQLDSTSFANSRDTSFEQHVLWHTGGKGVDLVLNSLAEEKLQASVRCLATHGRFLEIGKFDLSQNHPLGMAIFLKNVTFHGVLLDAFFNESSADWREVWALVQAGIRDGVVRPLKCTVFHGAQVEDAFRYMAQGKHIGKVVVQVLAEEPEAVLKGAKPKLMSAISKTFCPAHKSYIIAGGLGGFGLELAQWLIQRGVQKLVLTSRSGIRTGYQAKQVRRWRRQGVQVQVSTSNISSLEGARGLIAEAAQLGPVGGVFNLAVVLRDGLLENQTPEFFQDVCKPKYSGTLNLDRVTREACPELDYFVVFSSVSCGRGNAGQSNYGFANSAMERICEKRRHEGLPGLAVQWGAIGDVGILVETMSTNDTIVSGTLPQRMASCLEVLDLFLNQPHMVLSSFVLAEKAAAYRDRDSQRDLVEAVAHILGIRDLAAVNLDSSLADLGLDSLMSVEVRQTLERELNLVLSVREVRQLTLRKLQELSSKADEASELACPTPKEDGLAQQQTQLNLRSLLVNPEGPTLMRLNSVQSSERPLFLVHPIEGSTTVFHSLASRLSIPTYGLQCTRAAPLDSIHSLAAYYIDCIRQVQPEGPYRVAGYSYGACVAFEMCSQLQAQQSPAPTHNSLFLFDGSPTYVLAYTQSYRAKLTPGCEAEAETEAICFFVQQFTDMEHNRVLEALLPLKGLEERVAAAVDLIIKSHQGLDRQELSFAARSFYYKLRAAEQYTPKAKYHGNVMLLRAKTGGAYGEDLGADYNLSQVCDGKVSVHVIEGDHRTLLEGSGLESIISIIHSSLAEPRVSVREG
- MEASUREMENT_NOTES: FAS thioesterase domain inhibitors, dose response, biochemical, kinetic fluorescence intensity (AID 624326);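 note: rate of fluorescence rise from hydrolysis of a fluorogenic O-methyl fluorescein ester substrate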
- Assay type: functional
Activity calls are given as the source filed them.
VALUE_TYPE: IC50

1) COc1cc(C(=O)COC(=O)c2cc([N+](=O)[O-])ccc2N2CCOCC2)ccc1OC(F)F
10.1 µM (active)
2) CN(Cc1ccc(C(C)(C)C)cc1)C(=O)Cc1ccc(S(=O)(=O)N2CCOCC2)s1
0.291 µM (active)
3) COc1ccc(/C=C(\NC(=O)c2ccc([N+](=O)[O-])cc2)C(=O)NCCCN2CCOCC2)cc1
2.95 µM (active)
4) O=C(Nc1cccc(Cl)c1)c1cc([N+](=O)[O-])ccc1N1CCN(CCO)CC1
2.72 µM (active)
5) COc1ccc(N2CCN(C(=O)CSc3ccc([N+](=O)[O-])cc3)CC2)cc1
12.9 µM (active)
6) CC(CCc1ccccc1)NC(=O)COC(=O)c1cc(NS(=O)(=O)c2ccc(Cl)c([N+](=O)[O-])c2)ccc1O (stereo unspecified)
6.97 µM (active)
